# pIC50 listing for each entry below
# testSystem: wild-type human ALK cytoplasmic domain (amino acids 1058-1620) (Homo sapiens, UniProt Q9UM73)
# Construct: The cytoplasmic domain (amino acids 1058-1620) of wild-type human ALK; GST (N); made in house; host or cells: SF9 insect cells
# Sequence (Q9UM73 1058-1620): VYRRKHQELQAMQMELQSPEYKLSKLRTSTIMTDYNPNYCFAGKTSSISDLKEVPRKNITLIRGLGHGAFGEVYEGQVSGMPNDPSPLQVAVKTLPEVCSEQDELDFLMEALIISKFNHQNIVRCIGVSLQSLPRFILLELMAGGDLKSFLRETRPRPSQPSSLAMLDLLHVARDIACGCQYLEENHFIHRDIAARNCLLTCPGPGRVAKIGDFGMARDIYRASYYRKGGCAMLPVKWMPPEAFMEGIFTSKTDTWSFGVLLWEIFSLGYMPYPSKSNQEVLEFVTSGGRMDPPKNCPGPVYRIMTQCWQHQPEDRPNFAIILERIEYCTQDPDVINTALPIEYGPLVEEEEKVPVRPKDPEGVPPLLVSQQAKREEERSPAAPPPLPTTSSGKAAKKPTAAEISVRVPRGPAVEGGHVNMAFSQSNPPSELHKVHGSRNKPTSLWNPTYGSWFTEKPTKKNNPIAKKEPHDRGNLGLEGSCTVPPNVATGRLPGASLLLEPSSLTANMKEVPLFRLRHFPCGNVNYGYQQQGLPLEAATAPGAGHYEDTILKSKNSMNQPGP
# procedureText: ALK Inhibition in Enzyme Assay (Lance TR-FRET)
# Format: biochemical
# statedConditions: 2 nM enzyme, ATP at 40 μM (Km apparent), 90 minutes, mean of three replicates; read-out: ALK IC50
pIC50: −log10 of the molar value.
parameter: pIC50

chemicalStructure: Cc1ccc(CNC(=O)[C@H]2CCCN(c3ccnc(Nc4ccc(-n5cncn5)cc4)n3)C2)cc1
result: 5.30 to 6.00
--
chemicalStructure: COc1cc(Nc2nccc(N3CCC[C@H](C(=O)NCc4nc(C)cs4)C3)n2)cc(OC)c1OC
result: 5.30 to 6.00
--
chemicalStructure: COc1cc(Nc2nccc(N3CCC[C@H](C(=O)NCc4ccc(-c5ccccc5Cl)cc4)C3)n2)cc(OC)c1OC
result: 6.00 to 7.00

###

# testSystem: wild-type human ALK cytoplasmic domain (amino acids 1058-1620) (Homo sapiens, UniProt Q9UM73)
# Construct: The cytoplasmic domain (amino acids 1058-1620) of wild-type human ALK; GST (N); made in house; host or cells: SF9 insect cells
# procedureText: ALK Inhibition in Enzyme Assay (Lance TR-FRET)
# Type: biochemical
# statedConditions: 2 nM enzyme, ATP at 40 μM (Km apparent), 90 minutes, mean of three replicates; read-out: ALK IC50
# IC50 listing for each entry below
parameter: IC50

compound: COc1cc(Nc2nccc(N3CCC[C@H](C(=O)NCc4cccc(OC(C)C)c4)C3)n2)cc(OC)c1OC [Example 87]
result: 0.1 to 1 µM
--
compound: Cc1ccc(CNC(=O)[C@H]2CCCN(c3ccnc(Nc4ccc5[nH]ccc5c4)n3)C2)cc1 [Example 131]
result: 1 to 5 µM
--
compound: COc1cc(Nc2nccc(N3CCC[C@H](C(=O)NCc4ccc(C#N)cc4)C3)n2)cc(OC)c1OC [Example 115]
result: 0.1 to 1 µM
--
compound: COc1cc(Nc2nccc(N3CCC[C@H](C(=O)NCc4cc(C)cc(C)c4)C3)n2)cc(OC)c1OC [Example 81]
result: 5 to 10 µM
--
compound: COc1cc(Nc2nccc(N3CCC[C@H](C(=O)NC[C@H](C)c4ccccc4)C3)n2)cc(OC)c1OC [Example 101]
result: 1 to 5 µM
--
compound: COc1cc(Nc2nccc(N3CC(C)CC(C(=O)NCc4ccc(C)cc4)C3)n2)cc(OC)c1OC (mixture of isomers) [Example 195]
result: 1 to 5 µM
--
compound: COc1cc(Nc2nccc(N3CCC[C@H](C(=O)NCCc4ccc(Br)cc4)C3)n2)cc(OC)c1OC [Example 60]
result: 0.05 to 0.1 µM

###

# testSystem: wild-type human ALK cytoplasmic domain (amino acids 1058-1620) (Homo sapiens)
# Construct: The cytoplasmic domain (amino acids 1058-1620) of wild-type human ALK; GST (N); made in house; host or cells: SF9 insect cells
# procedureText: ALK Inhibition in Enzyme Assay (Lance TR-FRET)
# Type: biochemical
# statedConditions: 2 nM enzyme, ATP at 40 μM (Km apparent), 90 minutes, mean of three replicates; read-out: ALK IC50
pIC50: −log10 of the molar value.
parameter: pIC50

compound: Cc1ccc(CNC(=O)[C@H]2CCCN(c3ccnc(Nc4cccc(Cn5nccn5)c4)n3)C2)cc1
result: 6.00 to 7.00
//
compound: CCOC(=O)C(C)Cc1cccc(CNC(=O)[C@H]2CCCN(c3ccnc(Nc4cc(OC)c(OC)c(OC)c4)n3)C2)c1 (stereo partly shown)
result: 6.00 to 7.00
//
compound: COc1cc(Nc2nccc(N3CCC[C@H](C(=O)NC(c4ccccc4)C(F)(F)F)C3)n2)cc(OC)c1OC (stereo partly shown)
result: 5.30 to 6.00
//
compound: Cc1ccc(CNC(=O)[C@H]2CCCN(c3ccnc(Nc4cccc(C)c4)n3)C2)cc1
result: 6.00 to 7.00
//
compound: Cc1ccc(CNC(=O)[C@H]2CCCN(c3ccnc(Nc4ccc(F)cc4)n3)C2)cc1
result: 5.30 to 6.00
//
compound: COc1cc(Nc2nccc(N3CCC[C@H](C(=O)NC(C)c4ccc(Br)cc4)C3)n2)cc(OC)c1OC (stereo partly shown)
result: 6.00 to 7.00
//
compound: Cc1ccc(CNC(=O)[C@H]2CCCN(c3ccnc(Nc4cccc(Cc5ccccc5)c4)n3)C2)cc1
result: 6.00 to 7.00
